# Target Desc: GalNAc(b1-3)Gal
# Measurement Notes: glycan array binding signal (z-score within array); higher = stronger binding
# Details: glycan notation: IUPAC condensed, linker removed
Many of the other results were omitted from the sample, so the strongest signals are more common in it than they were.
Would you mind labelling by glycan array binding signal (z-score)? At or over -0.08 is 1 (yes), under is 0 (no).

Examples from the recorded data:
| Binder | Category |
| --- | --- |
| ECA (Erythrina cristagalli), P83410 (protein) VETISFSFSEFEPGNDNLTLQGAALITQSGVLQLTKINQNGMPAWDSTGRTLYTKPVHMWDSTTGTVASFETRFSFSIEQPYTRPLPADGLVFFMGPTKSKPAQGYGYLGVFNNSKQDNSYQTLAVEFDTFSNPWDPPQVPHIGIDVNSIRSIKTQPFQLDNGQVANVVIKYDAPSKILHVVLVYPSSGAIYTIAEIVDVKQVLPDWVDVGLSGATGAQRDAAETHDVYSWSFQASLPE | 0 (no) |
| EEA (Euonymus europaeus) (protein) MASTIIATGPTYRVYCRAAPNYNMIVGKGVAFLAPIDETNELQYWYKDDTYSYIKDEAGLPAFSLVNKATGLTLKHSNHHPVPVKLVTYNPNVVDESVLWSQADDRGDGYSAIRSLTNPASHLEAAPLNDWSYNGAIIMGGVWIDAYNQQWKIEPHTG | 0 (no) |
| MGL (Homo sapiens), Q8IUN9 (protein) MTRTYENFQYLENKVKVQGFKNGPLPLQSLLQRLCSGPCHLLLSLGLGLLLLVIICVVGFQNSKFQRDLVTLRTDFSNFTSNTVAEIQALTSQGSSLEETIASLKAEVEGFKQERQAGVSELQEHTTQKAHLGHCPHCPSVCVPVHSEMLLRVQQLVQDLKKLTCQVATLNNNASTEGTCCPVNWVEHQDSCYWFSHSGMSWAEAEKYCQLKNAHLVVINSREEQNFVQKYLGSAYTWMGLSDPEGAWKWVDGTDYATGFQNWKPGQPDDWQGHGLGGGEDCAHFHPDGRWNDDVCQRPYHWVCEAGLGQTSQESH | 1 (yes) |

Task: Could you verify whether the entry VLRB.aGPA.23-GCN4-biotin (Petromyzon marinus) (protein) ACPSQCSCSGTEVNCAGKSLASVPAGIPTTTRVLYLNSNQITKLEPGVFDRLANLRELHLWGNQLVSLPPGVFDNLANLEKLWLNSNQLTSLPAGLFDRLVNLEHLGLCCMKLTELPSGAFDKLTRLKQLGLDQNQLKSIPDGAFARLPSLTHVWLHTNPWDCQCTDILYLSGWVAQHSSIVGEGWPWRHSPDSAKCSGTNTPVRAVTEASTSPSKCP shows glycan array binding signal (z-score) of no less than -0.08?
Output: 1 (yes)

Task: Could you verify whether the entry CSA (Cytisus scoparius), P29257 (protein) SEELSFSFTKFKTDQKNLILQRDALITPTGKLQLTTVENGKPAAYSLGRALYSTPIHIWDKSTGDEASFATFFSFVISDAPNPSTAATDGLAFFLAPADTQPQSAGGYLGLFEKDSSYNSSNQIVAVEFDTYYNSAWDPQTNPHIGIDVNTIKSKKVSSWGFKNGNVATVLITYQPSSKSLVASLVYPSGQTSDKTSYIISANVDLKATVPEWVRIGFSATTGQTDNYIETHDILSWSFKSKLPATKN shows glycan array binding signal (z-score) of no less than -0.08?
Output: 1 (yes)
